The values you see were collected from paper PMC2854012.

Assay: Plasma pharmacokinetics of UCN-01 in patients
Format: in vivo, human
Details: human, plasma, intravenous, mean Cmax, at the MTD, with prednisone
readout kind: Cmax

### Prompt Item CN[C@@H]1C[C@H]2O[C@@](C)([C@@H]1OC)n1c3ccccc3c3c4c(c5c6ccccc6n2c5c31)C(=O)N[C@@H]4O [UCN-01, 7-hydroxy staurosporine] : provide Cmax
### Response ~12000 ng/mL

====

Assay: Plasma pharmacokinetics of UCN-01 in patients
Format: in vivo, human
Settings: human, plasma, iv, Cmax Mean, cycle 1, 72-h IV infusion, UCN-01 17 mg/m^2/24 h, with prednisone
readout kind: Cmax (ng/mL)
Write the answer as a number in ng/mL, unit excluded.

### Prompt Item CN[C@@H]1C[C@H]2O[C@@](C)([C@@H]1OC)n1c3ccccc3c3c4c(c5c6ccccc6n2c5c31)C(=O)N[C@@H]4O [UCN-01, 7-hydroxy staurosporine] : provide Cmax
### Response 10000
